quantityName: logP

* FC(F)(Cl)C(F)(F)Cl | 2.66
* FCC(F)(Cl)Cl | 1.51
* FC(F)(Cl)Cl | 1.93
* FC(F)(F)C(F)(F)Cl | 2.23

###

- assayComment: method code SF-RC, from DOI: 10.1021/jm901332c, PMID: 19921956
- measurementSetup: pH 7.4
quantityName: logD

• Cn1cnc2ncnc(F)c21 = -0.62
• Cn1cnc2ncnc(Cl)c21 = 0.03
• Cn1cnc2c(F)ncnc21 = 0.11
• Cn1cnc2ncnc(Br)c21 = 0.2

###

# Lookup of reported logD keyed by entry
- assayComment: method code SF-HPLC, from DOI: 10.1016/0045-6535(86)90532-1
- measurementSetup: pH 6.5
quantityName: logD

• S=C1NCCN1 = -0.66
• CCCCNC(=S)NCCCC = 2.75
